Target: OBP21 (Apis mellifera, UniProt A0ACM8Q9Q6)
Construct: purified recombinant protein
Sequence (A0ACM8Q9Q6 17-135): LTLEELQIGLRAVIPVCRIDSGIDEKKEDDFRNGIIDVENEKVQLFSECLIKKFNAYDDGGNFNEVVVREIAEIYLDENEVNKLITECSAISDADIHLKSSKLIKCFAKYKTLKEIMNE
Experiment: direct fluorescence titration of purified protein
Format: binding
measured_attribute: Kd

Query: // returns reported Kd for input `c1ccc(Nc2cccc3ccccc23)cc1`
Response: 1000 to 5000 nM

###

Kd values by entry
Molecular target: Odorant binding protein 18 (OBP18) (Apis mellifera, UniProt A0ACM8Q9Q2)
Construct: recombinant mature protein
Sequence (A0ACM8Q9Q2 17-135): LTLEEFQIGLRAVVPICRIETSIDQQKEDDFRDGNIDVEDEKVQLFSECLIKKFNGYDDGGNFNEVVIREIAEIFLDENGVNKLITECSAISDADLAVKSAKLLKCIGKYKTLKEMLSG
Experiment: biochemical
Design: competitive fluorescence displacement of 2 uM 1-NPN from purified recombinant OBP (2 uM), Tris pH 7.4
Settings: KD calculated from IC50 of 1-NPN displacement
All answers are understood in nM, so give the number only.

Example entries begin here.
>>> experimental_value("CC(=O)OCCc1ccccc1 [2-Phenylethyl acetate]")
1100
>>> experimental_value("CCCCCCCCCCCCCCCCCC(=O)OC [Methyl stearate]")
100
>>> experimental_value("COc1cc(/C=C/CO)ccc1O [Coniferyl alcohol]")
1600
>>> experimental_value("CCCCCCCCCCCC(=O)O [Dodecanoic acid]")
100
>>> experimental_value("CCCCCCCC/C=C\\CCCCCCCC(N)=O [Oleamide]")
100
>>> experimental_value("COc1cc(CC(=O)O)ccc1O [Homovanillic acid]")
1400
>>> experimental_value("COC(=O)c1ccc(O)cc1 [Methyl p-hydroxybenzoate]")
800
>>> experimental_value("Cc1ccccc1C=CC=O [2-Methylcinnamaldehyde]")
500
>>> experimental_value("OCCc1ccccc1 [2-Phenyl ethanol]")
1100
>>> experimental_value("CCCCCCCCC(=O)O [Nonanoic acid]")
100

Query: // returns reported Kd for input OCc1ccccc1 [Benzyl alcohol]
Response: 1100

Query: // returns reported Kd for input COc1ccccc1/C=C/C=O [2-Methoxycinnamaldehyde]
Response: 1700

###

Molecular target: OBP21 (Apis mellifera)
Construct: purified recombinant protein
Experiment: biochemical
Set-up: competitive fluorescence displacement of 2 uM 1-NPN from purified recombinant OBP (2 uM), Tris pH 7.4
Conditions: IC50 against 2 uM 1-NPN
pIC50: −log10 of the molar value.
measured_attribute: pIC50

Example entries begin here.
>>> experimental_value("CCCCCCCCCCCCCCCC(=O)OC [Methyl palmitate]")
"< 4.70"
>>> experimental_value("COc1ccccc1/C=C/C=O [2-Methoxycinnamaldehyde]")
4.70
>>> experimental_value("CC(C)=CCC/C(C)=C/CO [geraniol]")
"< 4.70"

Consider the record given below.
Query: // returns reported pIC50 for input COc1cc(/C=C/CO)ccc1O [Coniferyl alcohol]
Response: < 4.70

###

Target: Odorant binding protein 16 (OBP16) (Apis mellifera, UniProt A0ACM8Q9Q1)
Construct: recombinant mature protein
Sequence (A0ACM8Q9Q1 17-135): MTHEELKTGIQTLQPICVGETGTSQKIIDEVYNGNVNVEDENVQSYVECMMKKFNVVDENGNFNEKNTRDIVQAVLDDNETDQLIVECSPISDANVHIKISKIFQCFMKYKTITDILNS
Experiment: direct fluorescence titration of purified protein
pKd: −log10 of the molar value.
measured_attribute: pKd

Query: // returns reported pKd for input `c1ccc(Nc2cccc3ccccc23)cc1`
Response: 5.30 to 6.00

###

Molecular target: Odorant binding protein 18 (OBP18) (Apis mellifera, UniProt A0ACM8Q9Q2)
Construct: recombinant mature protein
Assay: direct fluorescence titration of purified protein
measured_attribute: Kd

Query: // returns reported Kd for input `c1ccc(Nc2cccc3ccccc23)cc1`
Response: 1000 to 5000 nM

###

Molecular target: OBP21 (Apis mellifera)
Construct: purified recombinant protein
Assay: biochemical
Details: IC50 against 2 uM 1-NPN
pIC50: −log10 of the molar value.
Quick rule: pIC50 of at least 5 means rule met, below that means rule not met.

>>> class("O=C/C=C/c1ccccc1 [Cinnamaldehyde]")
"rule not met"
>>> class("CC(=O)OCCc1ccccc1 [2-Phenylethyl acetate]")
"rule not met"
>>> class("CCCCCC(C)=O [2-Heptanone]")
"rule not met"
>>> class("C=CC(C)(O)CCC=C(C)C (stereo not shown) [Linalool]")
"rule not met"
>>> class("CC(=O)OC/C=C(\\C)CCC=C(C)C [geranyl acetate]")
"rule met"
>>> class("COc1cc(CC(=O)O)ccc1O [Homovanillic acid]")
"rule not met"
>>> class("COC(=O)c1ccc(O)cc1 [Methyl p-hydroxybenzoate]")
"rule met"
>>> class("CCCCCCCCC(=O)O [Nonanoic acid]")
"rule not met"
>>> class("CCCCCCCCCCCCCCCC(=O)OCC [Ethyl palmitate]")
"rule not met"
>>> class("C=CCc1ccc(O)c(OC)c1 [Eugenol]")
"rule not met"

Query: Does COc1cc(CCO)ccc1O [Homovanillic alcohol] have a reported pIC50 of at least 5?
Response: rule not met

Query: Does CC(=O)CCCCCCCC(=O)O [9-Ketodecanoic acid] have a reported pIC50 of at least 5?
Response: rule met

Query: Does CC(=O)CC/C=C(\C)CCC=C(C)C [Geranylacetone] have a reported pIC50 of at least 5?
Response: rule met

Query: Does CCCCC/C=C\C/C=C\CCCCCCCC(=O)OC [Methyl linoleate] have a reported pIC50 of at least 5?
Response: rule not met

Query: Does CCCCCCCC/C=C\CCCCCCCC(N)=O [Oleamide] have a reported pIC50 of at least 5?
Response: rule met

Query: Does CC(C)CC(=O)O [3-Methylbutanoic acid] have a reported pIC50 of at least 5?
Response: rule not met

Query: Does OCCc1ccccc1 [2-Phenyl ethanol] have a reported pIC50 of at least 5?
Response: rule not met

Query: Does CC(C)=CCC/C(C)=C/C=O [Citral] have a reported pIC50 of at least 5?
Response: rule not met
